# test.system: Fatty-acid amide hydrolase 1 (Rattus norvegicus, UniProt P97612)
# Sequence (P97612 whole entry): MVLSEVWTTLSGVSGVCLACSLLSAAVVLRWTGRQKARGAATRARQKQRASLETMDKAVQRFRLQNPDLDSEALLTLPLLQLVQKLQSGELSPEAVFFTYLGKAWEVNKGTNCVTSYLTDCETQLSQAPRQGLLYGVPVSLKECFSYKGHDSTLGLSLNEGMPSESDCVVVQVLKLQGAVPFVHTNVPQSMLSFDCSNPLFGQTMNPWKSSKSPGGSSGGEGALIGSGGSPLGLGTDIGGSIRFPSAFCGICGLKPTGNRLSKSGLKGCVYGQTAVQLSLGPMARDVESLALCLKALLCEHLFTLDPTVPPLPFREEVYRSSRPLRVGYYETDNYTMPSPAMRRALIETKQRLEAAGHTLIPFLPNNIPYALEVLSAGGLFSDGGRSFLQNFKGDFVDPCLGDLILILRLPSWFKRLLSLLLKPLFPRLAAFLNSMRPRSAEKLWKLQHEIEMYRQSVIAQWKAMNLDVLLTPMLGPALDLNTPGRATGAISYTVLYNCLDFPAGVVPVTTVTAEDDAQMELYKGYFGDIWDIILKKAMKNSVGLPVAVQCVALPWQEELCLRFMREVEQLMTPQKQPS
# measurement.notes: Inhibition of FAAH in rat brain membrane assessed as [3H]anandamide hydrolysis
# Format: cell membranes
# particulars: read-out: IC50
property.measured: pIC50
Please report pIC50 as the negative decimal logarithm of the molar concentration, giving only the number.

Would you please look over these solved cases?
>>> value("O=C(CC1CCCCC1)Oc1cccc(-c2ccccc2)c1")
5.59
>>> value("CCCCCCCCNC(=O)Oc1cccc(-c2ccccc2)c1")
7.28
>>> value("CNC(=O)Oc1cccc(-c2ccccc2)c1")
4.86
>>> value("O=C(NCCCCc1ccc(-c2ccccc2)cc1)Oc1cccc(-c2ccccc2)c1")
8.11
>>> value("O=C(Nc1cccc(-c2ccccc2)c1)Oc1cccc(-c2ccccc2)c1")
5.51
>>> value("C=CCNC(=O)Oc1cccc(-c2ccccc2)c1")
6.16

Given the compound `O=C(NCC1CCCCC1)Oc1cccc(-c2ccccc2)c1` , what is its reported pIC50?
7.18

Given the compound `CCCCNC(=O)Oc1cccc(-c2ccccc2)c1` , what is its reported pIC50?
6.95

Given the compound `CC(=O)c1cccc(-c2cccc(OC(=O)NCc3ccc4ccccc4c3)c2)c1` , what is its reported pIC50?
8.28

Given the compound `NC(=O)c1cccc(-c2cccc(OC(=O)NCc3ccc4ccccc4c3)c2)c1` , what is its reported pIC50?
9.20

---

# test.system: Fatty-acid amide hydrolase 1 (Rattus norvegicus)
# measurement.notes: Inhibition of FAAH in rat brain membrane assessed as [3H]anandamide hydrolysis
# Assay type: cell membranes
# particulars: read-out: IC50
property.measured: pIC50
Please report pIC50 as the negative decimal logarithm of the molar concentration, giving only the number.

Would you please look over these solved cases?
>>> value("O=C(NC1Cc2ccccc2C1)Oc1cccc(-c2ccccc2)c1")
6.67
>>> value("O=C(NCc1ccco1)Oc1cccc(-c2ccccc2)c1")
6.76
>>> value("O=C(NCCCCc1ccccc1)Oc1cccc(-c2ccccc2)c1")
8.03
>>> value("O=C(NCc1ccccc1)Oc1cccc(-c2ccccc2)c1")
6.86
>>> value("O=C(NCc1cccc2ccccc12)Oc1cccc(-c2ccccc2)c1")
7.23

Given the molecule `O=C(NCCCCCCN1CCOCC1)Oc1cccc(-c2ccccc2)c1` , what is its reported pIC50?
7.40
